B1: BEX1 (parent)
chain: EENMERIGEEVRQLMEKLREKQLS

- Variants of: B1
- Assay summary: protein stability index of a GFP-peptide fusion (GPS, HEK-293T) (PSI 1-6); higher = more stable;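 also: lentivirally expressed fusions sorted by FACS into six bins by GFP to DsRed ratio, PSI derived from sequencing read proportions per bin multiplied by bin number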
- Cond: c terminus: a fixed tail appended
Property: protein stability index

• EENMERIGELVRQLMEKLREKQLS [E10L] = 4.63
• YENMERIGEEVRQLMEKLREKQLS [E1Y] = 4.14
• EENMEAIGEEVRQLMEKLREKQLS [R6A] = 4.94
• EENMERIGEEVFQLMEKLREKQLS [R12F] = 4.12
• EENMERIGEEVRQLMEKLREKPLS [Q22P] = 3.67
• EENGERIGEEVRQLMEKLREKQLS [M4G] = 5.48
• EENMERIGEEVRQLMEGLREKQLS [K17G] = 4.86
• EENMERIGKEVRQLMEKLREKQLS [E9K] = 4.2
• EQNMERIGEEVRQLMEKLREKQLS [E2Q] = 4.2
• EENMERIGEEVRQLMEKLRESQLS [K21S] = 4.25
• EENMEQIGEEVRQLMEKLREKQLS [R6Q] = 4.04
• EENMERIGEEVRQLMEKLHEKQLS [R19H] = 5.32
• EENMERIGEFVRQLMEKLREKQLS [E10F] = 2.91
• EENMERIGEEVRQLMEKLREKWLS [Q22W] = 2.28
• EENRERIGEEVRQLMEKLREKQLS [M4R] = 4.75
• EENMERIGETVRQLMEKLREKQLS [E10T] = 3.96
• EENMERIGEEVRQLMEKMREKQLS [L18M] = 4.59
• EENMERIGEESRQLMEKLREKQLS [V11S] = 3.41
• EENMERIGFEVRQLMEKLREKQLS [E9F] = 3.7
• EENMERIGEEVRQLMEKLFEKQLS [R19F] = 3.95
• EENMERIGEEVRQLMVKLREKQLS [E16V] = 3.31
• EENMERIGEEVRQQMEKLREKQLS [L14Q] = 5.03
• EENMERIGEMVRQLMEKLREKQLS [E10M] = 3.51
• FENMERIGEEVRQLMEKLREKQLS [E1F] = 4.32
• IENMERIGEEVRQLMEKLREKQLS [E1I] = 4.77
• EENMERIGEEVRQLMEKLTEKQLS [R19T] = 4.76
• EENHERIGEEVRQLMEKLREKQLS [M4H] = 5.09
• EENMERIGEEVRQLYEKLREKQLS [M15Y] = 4.89
• EENMERIGEEVRQLMEKLRLKQLS [E20L] = 4.29
• EENMERIGEEVRQLMEKLREKQES [L23E] = 4.46
• EENMERIGEEVRQLMRKLREKQLS [E16R] = 3.89
• EENMEFIGEEVRQLMEKLREKQLS [R6F] = 3.72
• EINMERIGEEVRQLMEKLREKQLS [E2I] = 4
• EENMEKIGEEVRQLMEKLREKQLS [R6K] = 4.8
• EENMERIGEEVRPLMEKLREKQLS [Q13P] = 4.79
• EENMERIGEEVRQLMEKLKEKQLS [R19K] = 4.74
• EENMERIGEEVRQCMEKLREKQLS [L14C] = 4.33
